procedure_details: DNDI: Lipophilicity (gLogD) at pH 3
measurement_setup: buffer, pH 3
result_type: chromatographic logD

>  <structure_as_smiles>
FC(F)(F)c1ccc(N(c2cccnc2)C2CCN(c3nccs3)CC2)cc1

>  <chromatographic logD>
3.1

$$$$
>  <structure_as_smiles>
CC(C)(C)CC(=O)N1CCC(N(c2ccc(Cl)cc2)c2cccnc2)CC1

>  <chromatographic logD>
2.4

$$$$
>  <structure_as_smiles>
FC(F)(F)c1ccc(N(c2cccnc2)C2CCN(c3ccc(C(F)(F)F)cn3)CC2)cc1

>  <chromatographic logD>
5

$$$$
>  <structure_as_smiles>
CS(=O)(=O)N1CCC(N(c2ccc(Cl)cc2)c2cccnc2)CC1

>  <chromatographic logD>
1.6

$$$$

A = CC(C)(C)C(=O)N1CCC(N(c2ccc(C(F)(F)F)cc2)c2cccnc2)CC1
B = O=C(C1CC1)N1CCC(N(c2ccc(Cl)cc2)c2cccnc2)CC1
C = N#Cc1cc(C(F)(F)F)ccc1N1CCC(N(c2ccc(C(F)(F)F)cc2)c2cccnc2)CC1
Put these in order: smallest chromatographic logD first, largest last. Put the labels in the order asked and list them. B, A, C
(B: 1.6, A: 3.1, C: 5.2)

P = CS(=O)(=O)c1ccc(N2CCC(N(c3ccc(Cl)cc3)c3cccnc3)CC2)cc1
Q = Fc1cnc(N2CCC(N(c3ccc(C(F)(F)F)cc3)c3cccnc3)CC2)nc1
Larger number for chromatographic logD: P , or Q ? // output: label of the selected item Q
(Q: 4.2, P: 2.3)

a = Cc1ncsc1C(=O)N1CCC(N(c2ccc(C(F)(F)F)cc2)c2cccnc2)CC1
b = FC(F)(F)c1ccc(N(c2cccnc2)C2CCN(c3ccccc3)CC2)cc1
Given the listed items, does a or b have the lesser reported chromatographic logD? // output: label of the selected item a
(a: 2.1, b: 4.7)

A = CS(=O)(=O)c1ccc(N2CCC(N(c3ccc(C#N)cc3)c3cccnc3)CC2)cc1
B = N#Cc1ccc(N2CCC(N(c3ccc(C(F)(F)F)cc3)c3cccnc3)CC2)cc1
Larger number for chromatographic logD: A , or B ? // output: label of the selected item B

I = CN(C)S(=O)(=O)c1cccc(N2CCC(N(c3ccc(C#N)cc3)c3cccnc3)CC2)c1
II = Cc1noc(C)c1C(=O)N1CCC(N(c2ccc(C(F)(F)F)cc2)c2cccnc2)CC1
Larger number for chromatographic logD: I , or II ? // output: label of the selected item I
(I: 3.6, II: 2.4)

1 = O=C(c1ccccc1C(F)(F)F)N1CCC(N(c2ccc(C(F)(F)F)cc2)c2cccnc2)CC1
2 = O=C(c1ccccc1)N1CCC(N(c2ccc(Cl)cc2)c2cccnc2)CC1
Given the listed items, does 1 or 2 have the lesser reported chromatographic logD? // output: label of the selected item 2
(2: 2.1, 1: 3.5)

###

system_tested: Cytochrome P450 1A2 (Homo sapiens, UniProt P05177)
Sequence (P05177 whole entry): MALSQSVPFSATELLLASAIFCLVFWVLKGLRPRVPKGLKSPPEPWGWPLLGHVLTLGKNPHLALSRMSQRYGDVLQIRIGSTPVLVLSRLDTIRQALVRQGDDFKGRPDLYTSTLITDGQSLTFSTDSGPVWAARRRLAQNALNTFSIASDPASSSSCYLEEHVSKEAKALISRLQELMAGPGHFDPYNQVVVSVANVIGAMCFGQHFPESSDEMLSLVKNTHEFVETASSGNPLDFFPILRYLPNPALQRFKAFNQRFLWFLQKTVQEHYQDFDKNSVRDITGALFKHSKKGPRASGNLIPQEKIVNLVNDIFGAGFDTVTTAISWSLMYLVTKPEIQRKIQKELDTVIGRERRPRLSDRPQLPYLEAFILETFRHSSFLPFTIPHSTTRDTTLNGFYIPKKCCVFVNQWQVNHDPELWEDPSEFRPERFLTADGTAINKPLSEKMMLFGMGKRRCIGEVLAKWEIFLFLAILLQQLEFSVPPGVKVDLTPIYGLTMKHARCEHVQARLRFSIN
result_type: IC50

For the molecule FC(F)(F)c1ccc(N(c2cccnc2)C2CCN(c3ccc(C(F)(F)F)cn3)CC2)cc1 , what IC50 is on record? > 20 µM

###

procedure_details: DNDI: Lipophilicity (gLogD) at pH 7.4
measurement_setup: buffer, pH 7.4
result_type: chromatographic logD

>  <structure_as_smiles>
Fc1cnc(N2CCC(N(c3ccc(C(F)(F)F)cc3)c3cccnc3)CC2)nc1

>  <chromatographic logD>
4.9

$$$$
>  <structure_as_smiles>
Cn1nc(C2CC2)cc1N1CCC(N(c2ccc(C(F)(F)F)cc2)c2cccnc2)CC1

>  <chromatographic logD>
4.8

$$$$
>  <structure_as_smiles>
FC(F)(F)c1ccc(N(c2cccnc2)C2CCN(c3nccs3)CC2)cc1

>  <chromatographic logD>
4.3

$$$$

###

system_tested: Cytochrome P450 3A4 (Homo sapiens, UniProt P08684)
Sequence (P08684 whole entry): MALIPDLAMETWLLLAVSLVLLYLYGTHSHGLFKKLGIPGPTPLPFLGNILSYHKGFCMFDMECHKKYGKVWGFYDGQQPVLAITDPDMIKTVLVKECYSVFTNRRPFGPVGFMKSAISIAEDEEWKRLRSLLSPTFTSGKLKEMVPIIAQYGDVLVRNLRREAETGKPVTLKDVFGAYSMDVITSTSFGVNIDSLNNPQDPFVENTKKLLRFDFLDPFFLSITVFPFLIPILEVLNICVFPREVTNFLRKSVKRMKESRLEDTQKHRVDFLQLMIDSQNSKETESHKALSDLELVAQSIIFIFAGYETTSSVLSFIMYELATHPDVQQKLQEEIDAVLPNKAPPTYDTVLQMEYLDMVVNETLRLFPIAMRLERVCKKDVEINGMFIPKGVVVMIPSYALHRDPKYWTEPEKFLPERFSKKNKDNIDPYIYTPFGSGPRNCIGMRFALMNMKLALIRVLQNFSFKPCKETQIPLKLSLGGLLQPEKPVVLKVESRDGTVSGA
result_type: IC50 (nM)

Look over these answered cases.
>  <structure_as_smiles>
Cc1noc(C)c1C(=O)N1CCC(N(c2ccc(C(F)(F)F)cc2)c2cccnc2)CC1

>  <system_tested>
Cytochrome P450 3A4 (Homo sapiens, UniProt P08684)

>  <IC50 (nM)>
2100

$$$$
>  <structure_as_smiles>
O=C(c1ccccc1C(F)(F)F)N1CCC(N(c2ccc(C(F)(F)F)cc2)c2cccnc2)CC1

>  <system_tested>
Cytochrome P450 3A4 (Homo sapiens, UniProt P08684)

>  <IC50 (nM)>
1700

$$$$

I = CC(C)(C)C(=O)N1CCC(N(c2ccc(C(F)(F)F)cc2)c2cccnc2)CC1
II = O=C(c1ccc(F)cc1)N1CCC(N(c2ccc(C(F)(F)F)cc2)c2cccnc2)CC1
III = Cc1ncsc1C(=O)N1CCC(N(c2ccc(C(F)(F)F)cc2)c2cccnc2)CC1
Put these in order: smallest IC50 first, largest last. Put the labels in the order asked and list them. I, III, II
(I: 1900 nM, III: 2900 nM, II: 4400 nM)

###

Test system: Trypanosoma cruzi
procedure_details: DNDI: Chagas in Vitro
Assay type: functional, Tulahuen C4 (LacZ)
measurement_setup: Trypanosoma cruzi, Tulahuen C4 (LacZ)
result_type: IC90 (nM)

Look over these answered cases.
>  <structure_as_smiles>
N#Cc1ccccc1N1CCC(N(c2ccc(C(F)(F)F)cc2)c2cccnc2)CC1

>  <IC90 [nM]>
8

$$$$
>  <structure_as_smiles>
FC(F)(F)c1ccc(N(c2cncnc2)C2CCN(c3ccc(C(F)(F)F)cn3)CC2)cc1

>  <IC90 [nM]>
9.15

$$$$

I = CC(C)(C)C(=O)N1CCC(N(c2ccc(C(F)(F)F)cc2)c2cccnc2)CC1
II = CN(C)S(=O)(=O)c1cccc(N2CCC(N(c3ccc(C#N)cc3)c3cccnc3)CC2)c1
Given the listed items, does I or II have the lesser reported IC90? // output: label of the selected item I
(I: 7.59 nM, II: 11 nM)

###

procedure_details: in vitro
measurement_setup: human, microsomes
result_type: microsomal CLint (µL/min/mg)

Look over these answered cases.
>  <structure_as_smiles>
FC(F)(F)c1ccc(N(c2cccnc2)C2CCN(c3ccc(Cl)cc3)CC2)cc1

>  <microsomal CLint (µL/min/mg)>
34

$$$$
>  <structure_as_smiles>
CC(C)(C)CC(=O)N1CCC(N(c2ccc(Cl)cc2)c2cccnc2)CC1

>  <microsomal CLint (µL/min/mg)>
175

$$$$
>  <structure_as_smiles>
FC(F)(F)c1ccc(N(c2cncnc2)C2CCN(c3ccc(C(F)(F)F)cn3)CC2)cc1

>  <microsomal CLint (µL/min/mg)>
30.9

$$$$

1 = N#Cc1ccccc1N1CCC(N(c2ccc(C(F)(F)F)cc2)c2cccnc2)CC1
2 = CN(C)S(=O)(=O)c1cccc(N2CCC(N(c3ccc(C(F)(F)F)cc3)c3cccnc3)CC2)c1
Larger number for microsomal CLint: 1 , or 2 ? // output: label of the selected item 2

I = N#Cc1cc(C(F)(F)F)ccc1N1CCC(N(c2ccc(Cl)cc2)c2cccnc2)CC1
II = FC(F)(F)c1ccc(N(c2cccnc2)C2CCN(c3ccccc3)CC2)cc1
III = FC(F)(F)c1ccc(N(c2cccnc2)C2CCN(c3ccc(C(F)(F)F)cn3)CC2)cc1
Arrange the 3 compounds from largest to smallest microsomal CLint. Put the labels in the order asked and list them. I, II, III
(I: 103 µL/min/mg, II: 58.4 µL/min/mg, III: 39 µL/min/mg)

###

procedure_details: DNDI: Stability, 4 hour
Assay type: ADME, cell-free, Canis lupus familiaris
measurement_setup: dog, plasma
result_type: remaining at 4 h (%)
Enter your answer as a number in %; do not include the unit.

For the compound FC(F)(F)c1ccc(N(c2cccnc2)C2CCN(c3ccc(C(F)(F)F)cn3)CC2)cc1 , what remaining at 4 h is on record? 102

###

procedure_details: DNDI: Solubility, 24 hour, FeSSIF, 37C
Type: physicochemical
measurement_setup: read-out: Equilibrium
result_type: solubility thermodynamic at 24 h (µg/mL)
Enter your answer as a number in µg/mL; do not include the unit.

For the compound FC(F)(F)c1ccc(N(c2cccnc2)C2CCN(c3ccc(C(F)(F)F)cn3)CC2)cc1 , what solubility thermodynamic at 24 h is on record? 12.7
